Below, each entry is listed alongside its reported PHA assay IC50.
Biological target: T1, recombinant human IL-12 (rhIL-12) (human, UniProt P29459 23-219; P29460 23-328)
T1 sequence (looked up) 1: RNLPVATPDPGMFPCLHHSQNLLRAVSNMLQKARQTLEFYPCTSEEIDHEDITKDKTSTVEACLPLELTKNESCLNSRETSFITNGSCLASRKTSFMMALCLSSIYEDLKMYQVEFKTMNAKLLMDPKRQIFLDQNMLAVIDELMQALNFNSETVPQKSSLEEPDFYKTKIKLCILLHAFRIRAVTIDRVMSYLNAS
T1 sequence (looked up) 2: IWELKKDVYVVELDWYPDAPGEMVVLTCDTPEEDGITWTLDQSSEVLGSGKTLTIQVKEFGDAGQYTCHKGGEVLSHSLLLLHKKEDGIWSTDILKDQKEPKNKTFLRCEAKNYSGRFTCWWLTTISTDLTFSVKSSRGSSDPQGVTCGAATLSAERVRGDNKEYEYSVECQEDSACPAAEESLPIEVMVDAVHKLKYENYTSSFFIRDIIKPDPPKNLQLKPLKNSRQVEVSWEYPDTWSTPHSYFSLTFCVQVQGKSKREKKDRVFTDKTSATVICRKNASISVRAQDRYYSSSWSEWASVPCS
Assay: cell-based or functional assay
Value type: PHA assay IC50

Binder	Value type	Test value
Y61-L50Y-H31E IgG (antibody, V domains shown) VH: QVQLVQSGGGVVQPGRSLRLSCAASGFTFSEYGMHWVRQAPGKGLEWVAFIRYDGSNKYYADSVKGRFTISRDNSKNTLYLQMKSLRAEDTAVYYCKTHGSHDNWGQGTMVTVSS VL: SYVLTQPPSVSGTPGQRVTISCSGGRSWIGSNTVKWYQQLPGTAPKLLIYYNDQRPSGVPDRFSGSKSGTSASLAITGVQAEDEADYYCQSYDRGTHPALLFGTGTKVTVLG	PHA assay IC50	0.06 nM
Y61 (scFv, V domains shown, scFv; also called Y61 scFv) VH: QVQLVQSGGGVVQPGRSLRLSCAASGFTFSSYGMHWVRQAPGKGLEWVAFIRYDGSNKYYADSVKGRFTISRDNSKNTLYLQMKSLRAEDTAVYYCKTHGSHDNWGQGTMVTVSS VL: SYVLTQPPSVSGTPGQRVTISCSGGRSWIGSNTVKWYQQLPGTAPKLLIYGNDQRPSGVPDRFSGSKSGTSASLAITGVQAEDEADYYCQSYDRGTHPALLFGTGTKVTVLG	PHA assay IC50	0.14 nM
Y55 (scFv, V domains shown) VH: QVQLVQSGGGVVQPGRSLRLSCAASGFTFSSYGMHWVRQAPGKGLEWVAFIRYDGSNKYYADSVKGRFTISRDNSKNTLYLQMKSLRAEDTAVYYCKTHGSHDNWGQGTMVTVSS VL: SYVLTQPPSVSGTPGQRVTISCSGGRSNIGSNTVKWYQQLPGTAPKLLIYGNDQRPSGVPDRFSGSKSGTSASLAITGVQAEDEADYYCQSYDRGTHFQMYFGTGTKVTVLG	PHA assay IC50	> 10 nM
Y61-L50Y-H31E-L94Y IgG (antibody, V domains shown) VH: QVQLVQSGGGVVQPGRSLRLSCAASGFTFSEYGMHWVRQAPGKGLEWVAFIRYDGSNKYYADSVKGRFTISRDNSKNTLYLQMKSLRAEDTAVYYCKTHGSHDNWGQGTMVTVSS VL: SYVLTQPPSVSGTPGQRVTISCSGGRSNIGSNTVKWYQQLPGTAPKLLIYYNDQRPSGVPDRFSGSKSGTSASLAITGVQAEDEADYYCQSYDRYTHPALLFGTGTKVTVLG	PHA assay IC50	0.01 nM
Y19 (scFv, V domains shown) VH: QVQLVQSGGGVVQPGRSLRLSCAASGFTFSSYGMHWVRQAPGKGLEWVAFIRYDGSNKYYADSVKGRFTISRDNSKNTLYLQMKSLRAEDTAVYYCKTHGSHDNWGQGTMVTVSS VL: SYVLTQPPSVSGTPGQRVTISCSGGRSNIGSNTVKWYQQLPGTAPKLLIYGNDQRPSGVPDRFSGSKSGTSASLAITGVQAEDEADYYCQSYDRGHHPAMSFGTGTKVTVLG	PHA assay IC50	> 10 nM

The reported numbers originate from patent US20110123544A1.
